# Tested on: H460^R231Q cells
# experimental.protocol: Cell proliferation assay
# Type: cell-based, human
# condition: Homo sapiens, 72 h, read-out: H460^R231Q (IC50, μmol/L)
In plain terms, low IC50, meaning strictly below 50 µmol/L, gives 1.0, and everything else gives 0.0.

Task: Please let me know if COc1ccc(CN2CC3CC(N(C[C@H]4O[C@@H](n5cnc6c(N)ncnc65)[C@H](O)[C@@H]4O)C(C)C)CC3C2)cc1Br (stereo partly shown) [Compound 8] shows IC50 below 50 µmol/L.
Result: 0.0

Task: Would you kindly verify if IC50 of CC(C)(C)C(=O)Nc1ccc2[nH]c(CN3CCC(N(CCC(=O)NCC4CCCO4)C[C@H]4O[C@@H](n5cnc6c(N)ncnc65)[C@H](O)[C@@H]4O)CC3)nc2c1 (stereo partly shown) [Compound 32] is strictly less than 50 µmol/L?
Result: 0.0

Task: Please state whether IC50 is below 50 µmol/L for CC(C)(C)C(=O)Nc1ccc2[nH]c(CN3CCC(N(CCC(=O)N4CCSCC4)C[C@H]4O[C@@H](n5cnc6c(N)ncnc65)[C@H](O)[C@@H]4O)CC3)nc2c1 [Compound 35]
Result: 1.0

Task: Threshold test, IC50 < 50 µmol/L: CC(C)(C)C(=O)Nc1ccc(NC(=O)N2CC3CC(N(CC(=O)NC4CC4)C[C@H]4O[C@@H](n5cnc6c(N)ncnc65)[C@H](O)[C@@H]4O)CC3C2)cc1 (stereo partly shown) [Compound 20]
Result: 0.0

Task: Given the entry COC(=O)CN(C[C@H]1O[C@@H](n2cnc3c(N)ncnc32)[C@H](O)[C@@H]1O)C1CCN(Cc2nc3cc(NC(=O)C(C)(C)C)ccc3[nH]2)CC1 [Compound 24] , would its reported IC50 be below 50 µmol/L?
Result: 0.0

Task: Consider the molecule COc1cc(CN2CC3CC(N(C[C@H]4O[C@@H](n5cnc6c(N)ncnc65)[C@H](O)[C@@H]4O)C(C)C)CC3C2)cc(OC)c1OC (stereo partly shown) [Compound 10] . Is its IC50 strictly less than 50 µmol/L?
Result: 0.0

Task: A record lists CC(C)(C)C(=O)Nc1ccc2nc(CN3CCC(N(CC(=O)N4CCC(O)CC4)C[C@H]4O[C@@H](n5cnc6c(N)ncnc65)[C@H](O)[C@@H]4O)CC3)[nH]c2c1 [Compound 28] . Is its IC50 below 50 µmol/L?
Result: 1.0

Task: Threshold test, IC50 < 50 µmol/L: COc1ccc(NC(=O)N2CC3CC(N(C[C@H]4O[C@@H](n5cnc6c(N)ncnc65)[C@H](O)[C@@H]4O)C(C)C)CC3C2)cc1 (stereo partly shown) [Compound 4]
Result: 0.0

Task: Is 50 µmol/L strictly greater than the molecule's reported IC50? molecule: CC(C)N(CCC1CC2CN(C(=O)Nc3ccc(C(C)(C)C)cc3)CC2C1)C[C@H]1O[C@@H](n2cnc3c(N)ncnc32)[C@H](O)[C@@H]1O (stereo partly shown) [Compound 12]
Result: 0.0

Task: Does this molecule meet the criterion IC50 < 50 µmol/L? CC(C)N(CCC1CC2CN(Cc3ccc(F)c(F)c3)CC2C1)C[C@H]1O[C@@H](n2cnc3c(N)ncnc32)[C@H](O)[C@@H]1O (stereo partly shown) [Compound 17]
Result: 0.0

Task: Is IC50 strictly under 50 µmol/L for the entry CC(C)N(CCC1CC2CN(C(=O)Nc3ccc(NC(=O)C(C)(C)C)cc3)CC2C1)C[C@H]1O[C@@H](n2cnc3c(N)ncnc32)[C@H](O)[C@@H]1O (stereo partly shown) [Compound 14] ?
Result: 0.0

Task: hey, is IC50 for CC(C)(C)C(=O)Nc1ccc2[nH]c(CN3CCC(N(CCCN4CCC(O)CC4)C[C@H]4O[C@@H](n5cnc6c(N)ncnc65)[C@H](O)[C@@H]4O)CC3)nc2c1 [Compound 36] lower than 50 µmol/L or not?
Result: 1.0

Task: Field: below-cutoff. Rule: recorded IC50 strictly less than 50 µmol/L. Subject: CC(C)(C)C(=O)Nc1ccc2nc(CN3CCC(N(CC(=O)N4CCOCC4)C[C@H]4O[C@@H](n5cnc6c(N)ncnc65)[C@H](O)[C@@H]4O)CC3)[nH]c2c1 [Compound 30]
Result: 1.0

Task: Just wondering, is IC50 of COC1(OC)CCN(CCCN(C[C@H]2O[C@@H](n3cnc4c(N)ncnc43)[C@H](O)[C@@H]2O)C2CCN(Cc3nc4cc(NC(=O)C(C)(C)C)ccc4[nH]3)CC2)CC1 [Compound 41] below 50 µmol/L?
Result: 1.0

Task: Please state whether IC50 is below 50 µmol/L for CC(C)N(CCC1CC2CN(Cc3ccc(C#N)cc3)CC2C1)C[C@H]1O[C@@H](n2cnc3c(N)ncnc32)[C@H](O)[C@@H]1O (stereo partly shown) [Compound 16]
Result: 0.0

Task: Hello, I'm reviewing records and need to know if IC50 of CC1CCN(CCCN(C[C@H]2O[C@@H](n3cnc4c(N)ncnc43)[C@H](O)[C@@H]2O)C2CCN(Cc3nc4cc(NC(=O)C(C)(C)C)ccc4[nH]3)CC2)CC1 [Compound 38] is below 50 µmol/L. Could you check?
Result: 1.0

Task: hey, is IC50 for CC1CCN(C(=O)CN(C[C@H]2O[C@@H](n3cnc4c(N)ncnc43)[C@H](O)[C@@H]2O)C2CCN(Cc3nc4ccc(NC(=O)C(C)(C)C)cc4[nH]3)CC2)CC1 [Compound 27] lower than 50 µmol/L or not?
Result: 1.0

Task: Does the reported IC50 of CN(C[C@H]1O[C@@H](n2cnc3c(N)ncnc32)[C@H](O)[C@@H]1O)C1CC2CN(C(=O)Nc3ccc(C(C)(C)C)cc3)CC2C1 (stereo partly shown) [Compound 1] stay below 50 µmol/L?
Result: 0.0

Task: Decide: IC50 of CC(C)NC(=O)CCN(C[C@H]1O[C@@H](n2cnc3c(N)ncnc32)[C@H](O)[C@@H]1O)C1CCN(Cc2nc3cc(NC(=O)C(C)(C)C)ccc3[nH]2)CC1 [Compound 33] strictly below 50 µmol/L?
Result: 0.0

Task: API: query returns whether the molecule falls strictly under 50 µmol/L in IC50. Query: CC(C)(C)C(=O)Nc1ccc(NC(=O)N2CC3CC(N(CC(=O)N4CCSCC4)C[C@H]4O[C@@H](n5cnc6c(N)ncnc65)[C@H](O)[C@@H]4O)CC3C2)cc1 (stereo partly shown) [Compound 22]
Result: 1.0

Task: Answer whether the molecule CC(C)N(C[C@H]1O[C@@H](n2cnc3c(N)ncnc32)[C@H](O)[C@@H]1O)C1CC2CN(Cc3c(F)cc(Br)cc3F)CC2C1 (stereo partly shown) [Compound 11] has IC50 strictly less than 50 µmol/L
Result: 0.0
